System: Staphylococcus aureus
assay-details: Antistaphylococcal activity against aminoglycosides/tetracycline-resistant Staphylococcus aureus NRS-1 after 18 hrs by two-fold serial dilution method
Type: functional
test-context: NRS-1, 18 h
Reported MIC by item:
reported-property: MIC

structure-as-smiles: CC(C)c1cc2c(cc1Br)[C@@]1(C)CCC[C@@](C)(C(=O)O)[C@@H]1C/C2=N\OCCNS(=O)(=O)c1cccc(Cl)c1
system: Staphylococcus aureus
result: 1.56 to 3.13 mg/L
//
structure-as-smiles: CC(C)c1cc2c(cc1Br)[C@@]1(C)CCC[C@@](C)(C(=O)O)[C@@H]1C/C2=N\OCCNS(=O)(=O)c1c(Cl)cccc1Cl
system: Staphylococcus aureus
result: 1.56 to 3.13 mg/L
//
structure-as-smiles: CC(C)c1cc2c(cc1Br)[C@@]1(C)CCC[C@@](C)(C(=O)O)[C@@H]1C/C2=N\OCCNS(=O)(=O)c1ccc(C(F)(F)F)cc1
system: Staphylococcus aureus
result: 0.78 to 1.56 mg/L
//
structure-as-smiles: CC(C)c1cc2c(cc1Br)[C@@]1(C)CCC[C@@](C)(C(=O)O)[C@@H]1C/C2=N\OCCNS(=O)(=O)c1ccc(Cl)cc1Cl
system: Staphylococcus aureus
result: 0.78 to 1.56 mg/L
//
structure-as-smiles: Cc1ccc(C)c(S(=O)(=O)NCCO/N=C2\C[C@H]3[C@](C)(C(=O)O)CCC[C@]3(C)c3cc(Br)c(C(C)C)cc32)c1
system: Staphylococcus aureus
result: 3.13 to 6.25 mg/L
//
structure-as-smiles: CC(C)c1cc2c(cc1Br)[C@@]1(C)CCC[C@@](C)(C(=O)O)[C@@H]1C/C2=N\OCCNS(=O)(=O)c1ccc(Br)c(C(F)(F)F)c1
system: Staphylococcus aureus
result: 0.78 to 1.56 mg/L
